Consider the following binders; for each one, report its pKd.
system_under_test: T1, Recombinant human EPOR ectodomain-Fc (human, UniProt P19235 25-250)
T1 construct: erythropoietin receptor (EPOR), human, ectodomain; Captured on the chip with a human antibody capture kit, by its Fc; also called EPOR-Fc; rhEPOR ectodomain-Fc; source: bought: R&D Systems
T1 sequence (looked up): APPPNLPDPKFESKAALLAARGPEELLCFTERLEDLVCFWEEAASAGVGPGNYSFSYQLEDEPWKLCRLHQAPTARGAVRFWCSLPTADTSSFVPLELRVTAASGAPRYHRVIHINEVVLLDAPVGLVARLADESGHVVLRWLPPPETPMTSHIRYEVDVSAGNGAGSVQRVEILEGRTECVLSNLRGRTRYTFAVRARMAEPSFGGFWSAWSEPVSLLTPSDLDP
test_protocol: SPR; Biacore T200; receptor ectodomain-Fc immobilised to around 1000 RU on CM5 chips with a human antibody capture kit; peptides injected in five concentrations at 30 uL/min, single-cycle kinetics; HBS-EP+ buffer with 0.1% DMSO; 1:1 binding model; mean and SD of triplicate experiments
measurement_conditions: both partners purified
pKd: −log10 of the molar value. Positions of bridges follow the written chain, without caps; N, C: chain ends. No end group written: not given here.

INSERT INTO measurements (binder, readout_type, result) VALUES
  ('EMP-PA22 (designed binder, disulfide 9-18, 51-60 (inferred), Expressed with the CspB signal peptide of C. glutamicum ATCC13869; also called EMP-PA22 (STaMPtide); EPO mimetic STaMPtide; source: C. glutamicum YPS010, secreted into the supernatant, purified (RP-HPLC)) AETGGLYACHMGPMTWVCQPLRGAAPAAPAPAAPAAPAPAAPAAPGGLYACHMGPMTWVCQPLRG', 'pKd', '> 10.89'),
  ('EMP-PA8 (designed binder, disulfide 9-18, 37-46 (inferred), Expressed with the CspB signal peptide of C. glutamicum ATCC13869; also called EMP-PA8 (STaMPtide); EPO mimetic STaMPtide; source: C. glutamicum YPS010, secreted into the supernatant, purified (RP-HPLC)) AETGGLYACHMGPMTWVCQPLRGAAPAAPAPGGLYACHMGPMTWVCQPLRG', 'pKd', '> 10.52');

Turning now to a further record.
*Q* Consider the binder GGLYACHMGPMTWVCQPLRG (disulfide 6-15, also called EMP35 (Monomer); monomeric EMP35; source: synthetic peptide (GenScript Japan)) [EMP35] . State its measured pKd.
*A* > 9.30
